- Tested on: NCI-H226 lung
- experimental.details: NCI tumour cell line growth inhibition, 48 h
Recorded GI50 by entry

CCC(=O)NC1=C(Cl)C(=O)C(NC(=O)CC)=C(Cl)C1=O    > 45.6 µM
O=C(Nc1ccc(Cl)c(Cl)c1)c1ccc(NC2=C(Cl)C(=O)N(Cc3ccccc3)C2=O)cc1    7.33 µM
COc1cccc(N2CC(O)=C(c3nc4ccccc4s3)C2=N)c1    7.21 µM
CCN1CCN(c2ccc(NC(=O)Nc3nc4ccc(-c5ccccc5OC)cc4s3)cc2)CC1    2.09 µM

// next entry
# GI50 lookup, item Cc1ccc2sc3c(NCCCN)nc4ccccc4c3c(=O)c2c1
1.84 µM

----------
Recorded TGI by entry
- Tested on: SR leukemia
- experimental.details: NCI tumour cell line growth inhibition, 48 h

c1ccc2c(N=NSc3ncnc4nc[nH]c34)c3ccccc3nc2c1    8.17 µM
Cc1cnc2c(c1)C(=O)N(c1ccc(Oc3ccccc3)cc1)S2(=O)=O    > 100 µM
CCC(O)CCCCCCCCCCCCCCC(=O)O (stereo unspecified)    > 100 µM
Cc1nc(N)c(N2CCN(S(=O)(=O)N(Cc3ccccc3)Cc3ccccc3)CC2)c(=O)[nH]1    > 100 µM

# TGI lookup, item NC1(c2cc3ccccc3s2)CCCCCC1
36.6 µM

# TGI lookup, item COC(=O)CC[C@@H](C)[C@H]1CC[C@H]2[C@@H]3CC[C@@H]4C[C@H](O)CC[C@]4(C)[C@H]3CC[C@]12C
52.1 µM

# TGI lookup, item OCc1ccc2c(c1)CC1(Cc3ccccc3C1)C2
> 100 µM

# TGI lookup, item COc1cc(C2c3cccc4cccc(c34)C3CCC(=O)N32)cc(OC)c1O (stereo unspecified)
> 50 µM

# TGI lookup, item CCOP(=O)(OCC)/C(=C/n1c(=S)[nH]c2ccccc21)C(=O)OC
> 100 µM

# TGI lookup, item Nc1nc2cc(Cl)ccc2n1N
> 100 µM

----------
- Tested on: BT-549 breast
- experimental.details: NCI tumour cell line growth inhibition, 48 h
measured.metric: TGI

Completed entries (count: 5):
Cc1ccc(/C=c2\c(=O)[nH]c3nc4ccccc4c(=O)n23)cc1    60.3 µM
CC(C)(C)NCC(O)c1ccccc1Cl (configuration not stated)    > 100 µM
OCc1ccc2c(c1)CC1(Cc3ccccc3C1)C2    24.1 µM
O=C(O)C(Cc1ccccc1)Cc1ccccc1    > 100 µM
O=C1CCCC1CC(CN1CCOCC1)Sc1nnnn1-c1ccccc1 (configuration not stated)    > 100 µM

// next entry
# TGI lookup, item NS(=O)(=O)c1nnc(NS(=O)(=O)c2cccc3cccnc23)s1
> 100 µM

----------
- System: HCC-2998 colon
- experimental.details: NCI tumour cell line growth inhibition, 48 h; in the data active = GI50 below about 0.43 µM; inactive = the rest
Lab note: assign the record to one of Yes for active, No for inactive

CC1Cc2c(Cl)ncnc2N(C)c2ccccc21 (stereo unspecified)    No

Please let me know the test result on file for c1ccc2c(N=NSc3ncnc4nc[nH]c34)c3ccccc3nc2c1 .
No

Please let me know the test result on file for COc1cc2c(cc1OCC(=O)Nc1ccc(Cl)cc1C(=O)c1ccccc1Cl)N=CC1CCCN1C2=O (stereo unspecified) .
No

Please let me know the test result on file for COC(=O)Nc1nc2ccc(C(=O)c3cccc(I)c3)cc2[nH]1 .
Yes

Please let me know the test result on file for O=C(Nc1nc2c(C(F)(F)F)cccc2s1)c1cc(Cl)ccc1O .
No

Please let me know the test result on file for CC(C)(C)NCC(O)c1ccccc1Cl (stereo unspecified) .
No

Cited source: PubChem BioAssay (NCI)
